Field: Fibrin % cell toxicity. Provide a value for each of the compounds that follow.
- Tested on: primary rat microglia;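 also: share of dead cells sized under 150 µm2 at 10 µM in fibrin-stimulated microglia HTS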
- measurement.setup: rat
Where a name gives a salt, the structure may show the parent alone.
The reply must contain the numeric value and, after it, the unit.

# count of solved cases: 2
compound	Fibrin % cell toxicity
CCOc1cc(NC(C)=O)ccc1C(=O)OC [Ethopabate]	0%
Nc1nc(Cl)nc2c1ncn2[C@@H]1O[C@H](CO)[C@@H](O)[C@@H]1F [Clofarabine]	1%

// batch mode: one Fibrin % cell toxicity value per listed entry
1. CC1CC(OC(=O)c2ccccc2O)CC(C)(C)C1 (stereo not shown) [Homosalate]
2. N=c1ccn2c(n1)O[C@H]1[C@H](O)[C@@H](CO)O[C@H]12 [Ancitabine Hydrochloride]
3. Oc1cccc(O)c1 [Resorcinol]
4. CC(C)NCC(O)c1cc(O)cc(O)c1 (stereo not shown) [Orciprenaline]
5. CO[C@H]1/C=C/O[C@@]2(C)Oc3c(C)c(O)c4c(c3C2=O)C2=NC3(CCN(CC(C)C)CC3)NC2=C(NC(=O)/C(C)=C\C=C\[C@H](C)[C@H](O)[C@@H](C)[C@@H](O)[C@@H](C)[C@H](OC(C)=O)[C@@H]1C)C4=O [Rifabutin]
6. CCCN(CCC)S(=O)(=O)c1ccc(C(=O)O)cc1 [Probenecid]

Given back:
1. 1%
2. 1%
3. 0%
4. 0%
5. 0%
6. 1%

// batch mode: one Fibrin % cell toxicity value per listed entry
1. CNC[C@H](O)c1cccc(O)c1 [Phenylephrine]
2. CNCCCC1c2ccccc2C=Cc2ccccc21 [Protriptyline]
3. O=C1NS(=O)(=O)c2ccccc21 [Saccharin]
4. COc1ccc(Cc2cnc(N)nc2N)cc1OC [Diaveridine]
5. COc1cccc2c1C(=O)c1c(O)c3c(c(O)c1C2=O)C[C@@](O)(C(C)=O)C[C@@H]3O[C@H]1C[C@H](N)[C@H](O)[C@H](C)O1 [Daunorubicin]
6. CCN(CC)C(=S)SSC(=S)N(CC)CC [Disulfiram]

Given back:
1: 1%; 2: 1%; 3: 0%; 4: 1%; 5: 77%; 6: 90%
